Origin of measurements: paper PMC8849072

Assay Method Text: Pharmacokinetic study in rats
Assay type: in vivo, rat
Condition Context: rat, in vivo, po, 5 mg/kg
Measured Metric: bioavailability (%)
Give bare numbers, in %.

In: I have this compound here, COc1ncc(-c2ccc(Cl)cc2)cc1[C@@H](c1ccccc1)[C@@](O)(CCN(C)C)c1cccc2ccccc12 , and I need its recorded bioavailability.
Out: 36.7

---

Assay Method Text: Pharmacokinetic study in rats
Format: in vivo, rat
Condition Context: in vivo; Rat, Po. 5.0 mg/kg; read-out: AUC0-inf
Measured Metric: AUC(0-inf) (ng·h/mL)
One number for each entry, in ng·h/mL.

In: I have this compound here, COc1nc2ccc(Br)cc2cc1[C@@H](c1ccccc1)[C@@](O)(CCN(C)C)c1cccc2ccccc12 , and I need its recorded AUC(0-inf).
Out: 2680
